- Test system: CP335
- assay.remarks: qHTS profiling for inhibitors of Plasmodium falciparum proliferation (AID 504749); further: nearly all actives have a fitted effect of over 60% in size
- setup.conditions: P. falciparum in erythrocytes, SYBR Green DNA, 72 h; series mostly up to 28.7 µM
Inconclusive results are not listed. Activity calls are given as the source filed them. The call rests on the fitted dose curve; in most records, active means well fitted inhibition curve with a large enough effect; inconclusive means small, poorly fitted or top-dose-only effect; inactive means flat fitted curve, though single readings scatter.
Labels: YES for active, NO for inactive

>>> print(df.to_string())
                         structure_notation  assigned_category
0                          O=c1ccc2ccccc2o1                 NO
1          CN1CCC(=C2c3ccccc3Sc3ccccc32)CC1                YES
2               NCCC(O)(P(=O)(O)O)P(=O)(O)O                 NO
3    NC(=O)C(=O)N/N=C/c1ccc([N+](=O)[O-])o1                 NO
4   O=C(OCCOCCO)c1ccccc1Nc1cccc(C(F)(F)F)c1                 NO
5  COc1ccc(CCN2CCC(Nc3nc4ccccc4n3Cc3ccc(F)cc3)CC2)cc1                YES

---

- assay.remarks: Cellular Toxicity (caspase-3) Jurkat (AID 655);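 further: cells exposed to compound for 16 h at 37 °C before reading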; further: potency means the concentration at half of the fitted maximal effect
- setup.conditions: Jurkat caspase-3 activation, luminescence; series mostly up to 92.2 µM
Inconclusive results are not listed. Active and inactive are the calls of the source. The call rests on the fitted dose curve; in most records, active means well fitted activation curve with a large enough effect; inconclusive means small, poorly fitted or top-dose-only effect; inactive means flat fitted curve, though single readings scatter. Numbered stars: 1 amine (or outer) side, 2 acyl side, 3 side chain; on linkers, the order of the positions; unused ones are H or OH. Bridge positions count the residues as written; N and C are the ends. Square brackets hold non-standard residues; d marks the D form. Peptide text beside a SMILES is read from it. I, II: the chains in the order shown. Actinocin(9to1) = Cc1c2oc3c(C)ccc(C(=O)[*:1])c3nc-2c(C(=O)[*:2])c(N)c1=O; NMeV = CN[C@H](C(=O)O)C(C)C; Sar = CNCC(=O)O
measured.attribute: Potency

compound	result
Cc1c2oc3c(C)ccc(C(=O)N[C@@H]4C(=O)N[C@H](C(C)C)C(=O)N5CCC[C@H]5C(=O)N(C)CC(=O)N(C)[C@@H](C(C)C)C(=O)O[C@@H]4C)c3nc-2c(C(=O)N[C@@H]2C(=O)N[C@H](C(C)C)C(=O)N3CCC[C@H]3C(=O)N(C)CC(=O)N(C)[C@@H](C(C)C)C(=O)O[C@@H]2C)c(N)c1=O (I: T[dV]P[Sar][NMeV] / II: T[dV]P[Sar][NMeV]; ester I:1-I:C, II:1-II:C; linker I:N-II:N via Actinocin(9to1))	3.98 nM (active)
C=CCc1ccc(O)c(OC)c1	inactive
CCCCCCc1ccc(O)cc1O	inactive
O=C(O)CCCCC(=O)O	inactive
CC(O)C(=O)O (centres undefined)	inactive
COc1cccc2c1C(=O)c1c(O)c3c(c(O)c1C2=O)C[C@@](O)(C(=O)CO)C[C@@H]3O[C@H]1C[C@H](N)[C@H](O)[C@H](C)O1	20 nM (active)
COc1cccc2c1C(=O)c1c(O)c3c(c(O)c1C2=O)C[C@@](O)(C(C)=O)C[C@@H]3O[C@H]1C[C@H](N)[C@H](O)[C@H](C)O1	5.01 nM (active)
CC/C(=C(/CC)c1ccc(O)cc1)c1ccc(O)cc1	inactive
C[C@]12CC[C@@H]3c4ccc(O)cc4CC[C@H]3[C@@H]1CC[C@@H]2O	inactive
